Where do the numbers come from? From patent US7183252B2.

- System: gel-filtered platelets
- assay-name: In vitro inhibition of thrombin-induced gel-filtered platelet aggregation
- Type: cell-based
- assay-context: Platelet; human gel-filtered platelets; agonist thrombin 50 μL of 1 unit/mL; read-out: Thrmb IC50 (Thrombin-induced aggregation of gel-filtered platelets)
pIC50: −log10 of the molar value.
Note: every record was labeled by where its pIC50 sits among class A = under 5, class B = from 5 up to 6, class C = 6 and over

- sample-smiles: "COc1ccc(C[C@H](NC(=O)Nc2ccc3c(CN4CCCC4)cn(Cc4ccc(C(F)(F)F)cc4)c3c2)C(=O)N[C@@H](CCCNC(=N)N)C(=O)NCc2ccccc2)cc1"
  category-label: "class A"
- sample-smiles: "CCN(CC)Cc1cn(Cc2cccc(C)c2)c2cc(NC(=O)N[C@@H](Cc3ccc(OC(C)C)cc3)C(=O)N[C@@H](CCCNC(=N)N)C(=O)NCc3ccccc3)ccc12"
  category-label: "class A"
- sample-smiles: "NCC[C@H](NC(=O)[C@H](Cc1ccc(F)c(F)c1)NC(=O)Nc1ccc2c(CN3CCCC3)cn(Cc3c(Cl)cccc3Cl)c2c1)C(=O)NCCN1CCCC1"
  category-label: "class C"
- sample-smiles: "NCCNC(=O)[C@H](Cc1ccncc1)NC(=O)[C@H](Cc1ccc(F)c(F)c1)NC(=O)c1ccc2c(CN3CCCC3)cn(Cc3c(Cl)cccc3Cl)c2c1"
  category-label: "class B"
- sample-smiles: "CCN(CC)Cc1cn(CCCc2ccccc2)c2cc(NC(=O)N[C@@H](Cc3ccc(F)c(F)c3)C(=O)N[C@@H](CCCNC(=N)N)C(=O)NCc3ccccc3)ccc12"
  category-label: "class B"
- sample-smiles: "C[C@@H](CNC(=O)[C@H](CCCNC(=N)N)NC(=O)[C@H](Cc1ccc(F)c(F)c1)NC(=O)Nc1ccc2c(CN3CCCC3)cn(Cc3c(Cl)cccc3Cl)c2c1)c1ccccc1"
  category-label: "class C"
- sample-smiles: "NCC[C@H](NC(=O)[C@H](Cc1cccnc1)NC(=O)Nc1ccc2c(CN3CCCC3)cn(Cc3c(Cl)cccc3Cl)c2c1)C(=O)NCc1ccccc1"
  category-label: "class A"

---

- target-or-system: thrombin receptor (PAR-1) (Homo sapiens, UniProt P25116)
- Construct: CHRF membranes (Jones, Biochim. Biophys. Acta 1992, 1136, 272) are thawed from −70° C; endogenous in cells
- Sequence (P25116 22-425): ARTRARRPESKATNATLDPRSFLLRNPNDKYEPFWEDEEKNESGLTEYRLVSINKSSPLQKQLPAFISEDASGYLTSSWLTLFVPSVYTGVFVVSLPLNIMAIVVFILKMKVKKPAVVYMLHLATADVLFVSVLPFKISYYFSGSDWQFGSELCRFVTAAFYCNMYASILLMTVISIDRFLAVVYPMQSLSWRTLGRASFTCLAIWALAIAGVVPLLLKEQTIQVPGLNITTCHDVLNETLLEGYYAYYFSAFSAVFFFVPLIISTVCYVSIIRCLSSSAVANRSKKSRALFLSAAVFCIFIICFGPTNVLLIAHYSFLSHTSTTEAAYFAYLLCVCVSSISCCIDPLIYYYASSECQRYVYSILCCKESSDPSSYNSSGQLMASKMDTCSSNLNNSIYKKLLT
- assay-name: In vitro thrombin receptor binding assay (CHRF membranes)
- assay-context: tritiated 721-40 radioligand, read-out: Bndg IC50 (Thrombin receptor binding)
pIC50: −log10 of the molar value.
Threshold rule: pIC50 greater than or equal to 6 is TRUE; below that, FALSE.

- molecule: "CC(=N)NCC[C@H](NC(=O)[C@H](Cc1ccc(F)c(F)c1)NC(=O)Nc1ccc2c(CN3CCCC3)cn(Cc3c(Cl)cccc3Cl)c2c1)C(=O)NCc1ccccc1 [Compound 118]"
  target-or-system: "thrombin receptor (PAR-1) (Homo sapiens, UniProt P25116)"
  category-label: "TRUE"
- molecule: "NCCC[C@H](NC(=O)[C@H](Cc1ccc(F)c(F)c1)NC(=O)Nc1ccc2c(CN3CCCC3)cn(Cc3c(Cl)cccc3Cl)c2c1)C(=O)NCc1ccc(Cl)c(Cl)c1 [Compound 112]"
  target-or-system: "thrombin receptor (PAR-1) (Homo sapiens, UniProt P25116)"
  category-label: "FALSE"
- molecule: "CCN(CC)Cc1cn(Cc2cccc(C)c2)c2cc(NC(=O)N[C@@H](Cc3ccc(OC(C)C)cc3)C(=O)N[C@@H](CCCNC(=N)N)C(=O)NCc3ccccc3)ccc12 [Compound 43]"
  target-or-system: "thrombin receptor (PAR-1) (Homo sapiens, UniProt P25116)"
  category-label: "FALSE"
- molecule: "N=C(N)NCCC[C@H](NC(=O)[C@H](Cc1ccc(F)c(F)c1)NC(=O)Nc1ccc2c(CN3CCCC3)cn(Cc3ccc(F)cc3)c2c1)C(=O)NC(c1ccccc1)c1ccccc1 [Compound 60]"
  target-or-system: "thrombin receptor (PAR-1) (Homo sapiens, UniProt P25116)"
  category-label: "FALSE"
- molecule: "COc1ccc(C[C@H](NC(=O)Nc2ccc3c(CN4CCCC4)cn(Cc4cccc(F)c4)c3c2)C(=O)N[C@@H](CCCNC(=N)N)C(=O)NCc2ccccc2)cc1 [Compound 6]"
  target-or-system: "thrombin receptor (PAR-1) (Homo sapiens, UniProt P25116)"
  category-label: "FALSE"
- molecule: "O=C(Nc1ccc2c(CN3CCCC3)cn(Cc3c(Cl)cccc3Cl)c2c1)N[C@@H](Cc1ccc(F)c(F)c1)C(=O)N[C@@H](CCCCNC(=O)c1cccnc1)C(=O)NCc1ccccc1 [Compound 68]"
  target-or-system: "thrombin receptor (PAR-1) (Homo sapiens, UniProt P25116)"
  category-label: "FALSE"
- molecule: "N=C(N)NCCC[C@H](NC(=O)[C@H](Cc1ccc(F)c(F)c1)NC(=O)Nc1ccc2c(CN3CCCC3)cn(Cc3c(Cl)cccc3Cl)c2c1)C(=O)NCCCCCN [Compound 81]"
  target-or-system: "thrombin receptor (PAR-1) (Homo sapiens, UniProt P25116)"
  category-label: "TRUE"
- molecule: "CN1CCN(C(=O)[C@H](CCCN)NC(=O)[C@H](Cc2ccc(F)c(F)c2)NC(=O)Nc2ccc3c(CN4CCCC4)cn(Cc4c(Cl)cccc4Cl)c3c2)CC1 [Compound 114]"
  target-or-system: "thrombin receptor (PAR-1) (Homo sapiens, UniProt P25116)"
  category-label: "TRUE"
- molecule: "Cc1ccccc1Cn1cc(CN2CCCC2)c2ccc(NC(=O)N[C@@H](Cc3ccc(Cl)cc3)C(=O)N[C@@H](CCCNC(=N)N)C(=O)NCc3ccccc3)cc21 [Compound 48]"
  target-or-system: "thrombin receptor (PAR-1) (Homo sapiens, UniProt P25116)"
  category-label: "FALSE"

---

- System: gel-filtered platelets
- assay-name: In vitro inhibition of thrombin-induced gel-filtered platelet aggregation
- Format: cell-based
- assay-context: Platelet; human gel-filtered platelets; agonist thrombin 50 μL of 1 unit/mL; read-out: Thrmb IC50 (Thrombin-induced aggregation of gel-filtered platelets)
pIC50: −log10 of the molar value.
readout-type: pIC50

- sample-smiles: "CCOc1ccc(C[C@H](NC(=O)Nc2ccc3c(CN4CCCC4)cn(Cc4cccc(C)c4)c3c2)C(=O)N[C@@H](CCCNC(=N)N)C(=O)NCc2ccccc2)cc1"
  reported-result: 4.61
- sample-smiles: "NCCNC(=O)CCNC(=O)[C@H](Cc1ccc(Cl)cc1)NC(=O)Nc1ccc2c(CN3CCCC3)cn(Cc3c(Cl)cccc3Cl)c2c1"
  reported-result: 4.95
- sample-smiles: "NCCC[C@H](NC(=O)[C@H](Cc1ccc(F)c(F)c1)NC(=O)Nc1ccc2c(CN3CCCC3)cn(Cc3c(Cl)cccc3Cl)c2c1)C(=O)NCc1ccncc1"
  reported-result: 5.74

---

# key: entry, value: IC50
- Test system: gel-filtered platelets
- assay-name: In vitro inhibition of thrombin-induced gel-filtered platelet aggregation
- Assay type: cell-based
- assay-context: Platelet; human gel-filtered platelets; agonist thrombin 50 μL of 1 unit/mL; read-out: Thrmb IC50 (Thrombin-induced aggregation of gel-filtered platelets)

- sample-smiles: "N=C(N)NCCC[C@H](NC(=O)[C@H](Cc1ccncc1)NC(=O)Nc1ccc2c(CN3CCCC3)cn(Cc3ccc(F)cc3)c2c1)C(=O)NCc1ccccc1"
  target-or-system: "gel-filtered platelets"
  units-symbol: "µM"
  IC50: 34.8
- sample-smiles: "Nc1ccc(C[C@H](NC(=O)[C@H](Cc2ccc(F)c(F)c2)NC(=O)Nc2ccc3c(CN4CCCC4)cn(Cc4c(Cl)cccc4Cl)c3c2)C(=O)NCc2ccccc2)cc1"
  target-or-system: "gel-filtered platelets"
  units-symbol: "µM"
  IC50: 1.1
- sample-smiles: "O=C(Nc1ccc2c(CN3CCCC3)cn(Cc3c(Cl)cccc3Cl)c2c1)N[C@@H](Cc1ccc(F)c(F)c1)C(=O)N[C@@H](CCCCNC(=O)c1cccnc1)C(=O)NCc1ccccc1"
  target-or-system: "gel-filtered platelets"
  units-symbol: "µM"
  IC50: 4.7
- sample-smiles: "N=C(N)NCCC[C@H](NC(=O)[C@H](Cc1ccc2ccccc2c1)NC(=O)Nc1ccc2c(CN3CCCC3)cn(Cc3c(Cl)cccc3Cl)c2c1)C(=O)NCc1ccccc1"
  target-or-system: "gel-filtered platelets"
  units-symbol: "µM"
  IC50: 2.5
- sample-smiles: "NCC[C@H](NC(=O)[C@H](Cc1ccc(F)c(F)c1)NC(=O)Nc1ccc2c(CN3CCCC3)cn(Cc3c(Cl)cccc3Cl)c2c1)C(=O)NCc1ccccc1"
  target-or-system: "gel-filtered platelets"
  units-symbol: "µM"
  IC50: 0.16
- sample-smiles: "COc1ccc(C[C@H](NC(=O)Nc2ccc3c(CN4CCCC4)cn(Cc4ccc(OC)cc4)c3c2)C(=O)N[C@@H](CCCNC(=N)N)C(=O)NCc2ccccc2)cc1"
  target-or-system: "gel-filtered platelets"
  units-symbol: "µM"
  IC50: 26.6
- sample-smiles: "NC(N)=NCCC[C@H](NC(=O)[C@H](Cc1ccc(I)cc1)NC(=O)Nc1ccc2c(CN3CCCCC3)cn(Cc3c(Cl)cccc3Cl)c2c1)C(=O)NCc1ccccc1"
  target-or-system: "gel-filtered platelets"
  units-symbol: "µM"
  IC50: 4.8
- sample-smiles: "NCCC[C@H](NC(=O)[C@H](Cc1ccc(F)c(F)c1)NC(=O)Nc1ccc2c(CN3CCCC3)cn(Cc3c(Cl)cccc3Cl)c2c1)C(=O)NCc1ccccn1"
  target-or-system: "gel-filtered platelets"
  units-symbol: "µM"
  IC50: 4.1
- sample-smiles: "NCC[C@H](NC(=O)[C@H](Cc1cccs1)NC(=O)Nc1ccc2c(CN3CCCC3)cn(Cc3c(Cl)cccc3Cl)c2c1)C(=O)NCc1ccccc1"
  target-or-system: "gel-filtered platelets"
  units-symbol: "µM"
  IC50: 0.94
- sample-smiles: "CCN(Cc1ccncc1)C(=O)[C@H](CCCN)NC(=O)[C@H](Cc1ccc(F)c(F)c1)NC(=O)Nc1ccc2c(CN3CCCC3)cn(Cc3c(Cl)cccc3Cl)c2c1"
  target-or-system: "gel-filtered platelets"
  units-symbol: "µM"
  IC50: 3.7
- sample-smiles: "CN(C)CCC[C@H](NC(=O)[C@H](Cc1ccc(F)c(F)c1)NC(=O)Nc1ccc2c(CN3CCCC3)cn(Cc3c(Cl)cccc3Cl)c2c1)C(=O)NCc1ccccc1"
  target-or-system: "gel-filtered platelets"
  units-symbol: "µM"
  IC50: 0.6
